B1: Protein S100-G, residues 1 to 79; numbered along this chain, P02633 (parent)
chain: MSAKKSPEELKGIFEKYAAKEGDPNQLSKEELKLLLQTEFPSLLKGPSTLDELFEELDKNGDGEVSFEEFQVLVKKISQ

- Variants of: B1
- TEST METHOD NOTES: abundance fitness (aPCA) (normalised: wild type 0, dead -1); higher = more abundant; growth selection in yeast, the domain comes from the species named
- RUN CONDITIONS: Bos taurus
OBSERVABLE: abundance fitness

Reported abundance fitness for `V74L` was -0.018

Reported abundance fitness for `S66N` was 0.014

Reported abundance fitness for `L27D` was -0.855

Reported abundance fitness for `D51P` was 0.032

Reported abundance fitness for `Q79K` was 0.046

Reported abundance fitness for `Q26M` was 0.002

Reported abundance fitness for `N25D` was -0.052

Reported abundance fitness for `E56A` was -0.042

Reported abundance fitness for `I77S` was -0.165

Reported abundance fitness for `D58A` was -0.107

Reported abundance fitness for `A3K` was -0.133

Reported abundance fitness for `K11R` was -0.185

Reported abundance fitness for `N60R` was 0.014

Reported abundance fitness for `G46Q` was -0.008

Reported abundance fitness for `Q37S` was -0.142

Reported abundance fitness for `N25K` was -0.059

Reported abundance fitness for `S66G` was 0.033

Reported abundance fitness for `E55C` was -0.014

Reported abundance fitness for `K29Q` was -0.099

Reported abundance fitness for `E64K` was -0.028

Reported abundance fitness for `P47K` was -0.09

Reported abundance fitness for `G22V` was -0.29

Reported abundance fitness for `E55S` was -0.024

Reported abundance fitness for `L32T` was -0.054

Reported abundance fitness for `T38D` was 0.096

Reported abundance fitness for `L73W` was 0.015

Reported abundance fitness for `F14P` was -1.33

Reported abundance fitness for `V65G` was -0.37

Reported abundance fitness for `D23R` was -0.043

Reported abundance fitness for `S6E` was -0.159

Reported abundance fitness for `I13G` was -0.959

Reported abundance fitness for `L36K` was -1.98

Reported abundance fitness for `K33N` was -0.016

The reported numbers originate from the Human Domainome abundance scans (Beltran et al. 2025).
